system: SNB-78 CNS; test: NCI tumour cell line growth inhibition, 48 h
Measure: TGI

- Molecule: "COc1cc([C@H]2Oc3c(c(O)cc4oc(-c5ccccc5)cc(=O)c34)O[C@@H]2CO)ccc1O"
  Measurement target: "SNB-78 CNS"
  TGI: "> 100 µM"
- Molecule: "C[Si](C)(C)/C=C/CN1C(=O)CCC1O (configuration not stated)"
  Measurement target: "SNB-78 CNS"
  TGI: "> 100 µM"
- Molecule: "CC(=O)Oc1c(OC(C)=O)c(-c2ccc(O)c(O)c2)c(O)c(O)c1-c1ccc(O)cc1"
  Measurement target: "SNB-78 CNS"
  TGI: "> 100 µM"
- Molecule: "O=C1c2cc(CCl)sc2C(=O)c2ccsc21"
  Measurement target: "SNB-78 CNS"
  TGI: "0.746 µM"
- Molecule: "Cc1ccc2[nH]c3c(C)c4ccncc4c(C)c3c2c1"
  Measurement target: "SNB-78 CNS"
  TGI: "4.64 µM"

TGI reported for this molecule `O=c1cccccc1NCCCCNc1cccccc1=O` : > 100 µM

TGI reported for this molecule `CNC(=O)CN1CC(=O)N(C)C(=O)C1` : > 100 µM

TGI reported for this molecule `Cc1cc(C)nc(NS(=O)(=O)c2ccc(NC(=O)c3cccc4cc5ccccc5nc34)cc2)n1` : 72.7 µM

TGI reported for this molecule `CCN1/C(=C/C(C)=C/c2sc3ccccc3[n+]2CC)Sc2ccccc21` : 2.51 µM

TGI reported for this molecule `Cc1nc(-c2nc([N+](=O)[O-])c([N+](=O)[O-])[nH]2)cs1` : > 100 µM

TGI reported for this molecule `Cc1nc(C(N)=S)sc1C(=O)/C=C/c1cccc(O)c1` : > 100 µM

TGI reported for this molecule `COc1ccc(O)c2c1C(=O)CCCC2=O` : > 100 µM

TGI reported for this molecule COc1ccc(NC(=O)C(=O)C2NC(=S)NC2=O)c(OC)c1 (configuration not stated) : > 100 µM

TGI reported for this molecule CCC1(CN(C)C)CC/C(=C\c2ccc3c(c2)OCO3)C1=O (configuration not stated) : > 100 µM

TGI reported for this molecule CC[C@@H]1OC2(C)CC(S(=O)(=O)c3ccccc3)CC1O2 (some centres not stated) : > 100 µM

TGI reported for this molecule `COc1ccccc1/C=C\c1cc(OC)c(OC)c(OC)c1` : > 100 µM

TGI reported for this molecule `O=c1nc2cc(-c3ccccc3)[nH]c2nn1-c1c(Cl)cc(Cl)cc1Cl` : > 100 µM

# credit: PubChem BioAssay (NCI)
